conditions: in ε-caprolactone, 296.15 K
readout label: solubility (mole fraction)

> print(dat)
   chemical.string  recorded.value
1  O=C(O)CCCC(=O)O           0.183

###

conditions: in ε-caprolactone, 320.25 K
readout label: solubility (mole fraction)

> print(dat)
   chemical.string  recorded.value
1  O=C(O)CCCC(=O)O           0.364

###

conditions: in propionic acid, 312.85 K
readout label: solubility (mole fraction)

> print(dat)
   chemical.string  recorded.value
1  O=C(O)CCCC(=O)O            0.42

###

conditions: in propionic acid, 302.15 K
readout label: solubility (mole fraction)

> print(dat)
   chemical.string  recorded.value
1  O=C(O)CCCC(=O)O           0.337

###

conditions: in ε-caprolactone, 286.25 K
readout label: solubility (mole fraction)

> print(dat)
   chemical.string               readout.label  recorded.value
1  O=C(O)CCCC(=O)O  solubility (mole fraction)           0.124

###

conditions: in ε-caprolactone, 304.45 K
readout label: solubility (mole fraction)

> print(dat)
   chemical.string               readout.label  recorded.value
1  O=C(O)CCCC(=O)O  solubility (mole fraction)           0.245

###

conditions: in ε-caprolactone, 291.55 K
readout label: solubility (mole fraction)

> print(dat)
   chemical.string               readout.label  recorded.value
1  O=C(O)CCCC(=O)O  solubility (mole fraction)           0.153

###

conditions: in ε-caprolactone, 300.25 K
readout label: solubility (mole fraction)

> print(dat)
   chemical.string  recorded.value
1  O=C(O)CCCC(=O)O           0.214

###

conditions: in cyclohexanone, 312.45 K
readout label: solubility (mole fraction)

> print(dat)
   chemical.string               readout.label  recorded.value
1  O=C(O)CCCC(=O)O  solubility (mole fraction)           0.238

###

conditions: in propionic acid, 309.15 K
readout label: solubility (mole fraction)

> print(dat)
   chemical.string  recorded.value
1  O=C(O)CCCC(=O)O           0.395

###

conditions: in cyclohexanone, 331.55 K
readout label: solubility (mole fraction)

> print(dat)
   chemical.string  recorded.value
1  O=C(O)CCCC(=O)O           0.401

###

conditions: in propionic acid, 289.55 K
readout label: solubility (mole fraction)

> print(dat)
   chemical.string               readout.label  recorded.value
1  O=C(O)CCCC(=O)O  solubility (mole fraction)           0.238

###

conditions: in cyclohexanone, 307.15 K
readout label: solubility (mole fraction)

> print(dat)
   chemical.string  recorded.value
1  O=C(O)CCCC(=O)O             0.2

The values you see were collected from BigSolDB 2.1.
